system: S. pneumoniae ATCC 51916; test: MIC, S. pneumoniae; assay type: cell-based; settings: S. pneumoniae
measure.name: MIC Spn52 (µg/mL)

INSERT INTO results (compound, reported_relation, result) VALUES
  ('CCc1[nH]c2nc(Sc3cnc4nccnc4c3)nc(N3CC4CCCNC4C3)c2c1Cl.O=C(O)C(F)(F)F (centres unmarked) [700,721]', '=', 32),
  ('CCc1[nH]c2nc(Oc3ccc4nccnc4c3)nc(Oc3ccc4nccnc4c3)c2c1Cl [700,613]', '=', 4),
  ('CCOC(=O)Cc1nc(N2CCC(O)C2)c2c(Cl)c(CC)[nH]c2n1 (centres unmarked) [700,544]', '>', 64),
  ('CCc1[nH]c2nc(Sc3cnc4nccnc4c3)nc(N3CC[C@H](O)C3)c2c1Cl [700,427]', '=', 1),
  ('CCc1[nH]c2nc(Oc3cncnc3)nc(Oc3cncc(C#N)c3)c2c1Cl.O=C(O)C(F)(F)F [700,722]', '=', 8),
  ('CCc1[nH]c2nc(Sc3cncnc3)nc(N3CC4C(N)C4C3)c2c1Cl (centres unmarked) [700,784]', '=', 8),
  ('CCc1[nH]c2nc(Cl)nc(Oc3ccc4nccnc4c3)c2c1Cl [700,612]', '>', 64),
  ('CCc1[nH]c2nc(Sc3cnc4nccnc4c3)nc(N3CC(NC(=O)OCc4ccccc4)C3)c2c1Br [700,404]', '≤', 0.5),
  ('CCc1[nH]c2nc(Sc3cnc4nccnc4c3)nc(N3CC(N(C)C(=O)OC(C)(C)C)C3)c2c1Cl.O=C(O)C(F)(F)F [700,601]', '=', 2),
  ('CCOc1nc(S(C)(=O)=O)nc2[nH]c(CC)c(Br)c12 [700,288]', '=', 64),
  ('CCc1[nH]c2nc(Sc3nc(C(=O)O)cs3)nc(N3CC(F)(F)C3)c2c1Cl.O=C(O)C(F)(F)F [700,338]', '=', 64),
  ('CCc1[nH]c2nc(Oc3cnc4c(cnn4C)c3)nc(Oc3cccnc3)c2c1Cl [700,615]', '=', 4),
  ('CCc1[nH]c2nc(Sc3cnc4nccnc4c3)nc(N3CC4CCNC4C3)c2c1Cl.O=C(O)C(F)(F)F (centres unmarked) [700,563]', '=', 2),
  ('CCc1[nH]c2nc(Sc3ccc4nnc(C(=O)NC[C@H](C)O)nc4c3)nc(N3CC(N)C3)c2c1Cl [700,611]', '=', 8),
  ('CCc1[nH]c2nc(Sc3cnc4nccnc4c3)nc(N3CC[C@H](O)[C@H]3CO)c2c1Cl [700,657]', '=', 2),
  ('CCOc1nc(Sc2nc(OC)c3cccnc3n2)nc2[nH]c(CC)c(Cl)c12 [700,339]', '>', 64),
  ('CCc1[nH]c2nc(Sc3cnc4nccnc4c3)nc(N3CCC4CNCC43)c2c1Cl.O=C(O)C(F)(F)F (centres unmarked) [700,564]', '=', 16);

The origin of these recorded values is patent US10047105B2.
